Experiment: Cytotoxicity against human KBV cells assessed as cell survival at 10 uM measured after 72 hrs incubation by MTT assay relative to control
Format: functional
Settings: read-out: Activity

{"SMILES REPR": "CC(C)(C)OC(=O)N1CCCC[C@@H]1C(=O)N[C@H]1CC[C@]2(C)[C@H]3C[C@@H](O)[C@@H]4[C@@H]([C@]5(C)CC[C@H](C(C)(C)O)O5)CC[C@@]4(C)[C@]3(C)CC[C@H]2C1(C)C", "viability at 10 µM [%]": 118}
{"SMILES REPR": "CC(C)(C)OC(=O)N1CCOC[C@H]1C(=O)N[C@H]1CC[C@]2(C)[C@H]3C[C@@H](O)[C@@H]4[C@@H]([C@]5(C)CC[C@H](C(C)(C)O)O5)CC[C@@]4(C)[C@]3(C)CC[C@H]2C1(C)C", "viability at 10 µM [%]": 89}
{"SMILES REPR": "CC(C)(O)[C@H]1CC[C@@](C)([C@H]2CC[C@]3(C)[C@@H]2[C@H](O)C[C@@H]2[C@@]4(C)CC[C@H](NC(=O)[C@H]5CCN5)C(C)(C)[C@@H]4CC[C@]23C)O1", "viability at 10 µM [%]": 70}
{"SMILES REPR": "CC(C)(C)OC(=O)N1CC[C@@H]1C(=O)N[C@H]1CC[C@]2(C)[C@H]3C[C@@H](O)[C@@H]4[C@@H]([C@]5(C)CC[C@H](C(C)(C)O)O5)CC[C@@]4(C)[C@]3(C)CC[C@H]2C1(C)C", "viability at 10 µM [%]": 99}
{"SMILES REPR": "CC(C)(C)OC(=O)N1C[C@H](O)C[C@H]1C(=O)N[C@H]1CC[C@]2(C)[C@H]3C[C@@H](O)[C@@H]4[C@@H]([C@]5(C)CC[C@H](C(C)(C)O)O5)CC[C@@]4(C)[C@]3(C)CC[C@H]2C1(C)C", "viability at 10 µM [%]": 105}

====

Experiment: Reversal of multi-drug resistance in human KVB cells assessed as increase in PTX-induced cytotoxicity by measuring cell survival at 10 uM measured after 72 hrs incubation in presence of 100 nM paclitaxel by MTT assay relative to control
Type: functional, KBV
Quick reference for Activity among some compounds

{"SMILES REPR": "CC(C)(C)OC(=O)N1C[C@H](F)C[C@H]1C(=O)N[C@H]1CC[C@]2(C)[C@H]3C[C@@H](O)[C@@H]4[C@@H]([C@]5(C)CC[C@H](C(C)(C)O)O5)CC[C@@]4(C)[C@]3(C)CC[C@H]2C1(C)C", "Activity [%]": 26}
{"SMILES REPR": "CC(C)(C)OC(=O)N1CC(F)(F)C[C@H]1C(=O)N[C@H]1CC[C@]2(C)[C@H]3C[C@@H](O)[C@@H]4[C@@H]([C@]5(C)CC[C@H](C(C)(C)O)O5)CC[C@@]4(C)[C@]3(C)CC[C@H]2C1(C)C", "Activity [%]": 64}
{"SMILES REPR": "CC(C)(O)[C@H]1CC[C@@](C)([C@H]2CC[C@]3(C)[C@@H]2[C@H](O)C[C@@H]2[C@@]4(C)CC[C@H](NC(=O)[C@@H]5CCNC5)C(C)(C)[C@@H]4CC[C@]23C)O1", "Activity [%]": 49}
